Reference source for all entries: PubChem BioAssay AID248

# Tested on: L1210 leukemia ip in BDF1 mice, survival T/C
# Experimental details: NCI In Vivo Anticancer Drug Screen. Data for tumor model L1210 Leukemia (intraperitoneal) in B6D2F1 (BDF1) mice
# Run parameters: endpoint: mean survival time; dose: 200.0 mg/kg/injection; schedule: Q01DX009 (ip); vehicle: saline with Tween-80; higher = longer survival
Inconclusive results and toxic doses are left out.
Measure name: T/C

Cc1cc(=O)[nH]c(Nc2ccccc2)n1
93 % of control

Ask: What value of T/C has been reported for the following molecule? CCCCCCCC/C=C\CCCCCCCCSC#N
Reply: 97 % of control

Ask: Quick one: CC(C)c1ccc(/C=C/C(=O)c2ccc(F)cc2)cc1
Reply: 90 % of control

Ask: Follow-up item: O=c1[nH]c(C(F)(F)F)nc2c1nc1n2CCC1
Reply: 102 % of control

Ask: Can you handle N#Cc1ncc(-c2ccccc2)nc1C#N next?
Reply: 100 % of control
